Recorded values, source PubChem BioAssay (EPA / NIEHS).

Test: ATG_CMV_CIS: Attagene CIS-FACTORIAL HepG2 Assay for human CMV (Internal Marker) (AID 2282928);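 note: endpoint acts as a background internal control marker rather than a target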
Conditions: HepG2 CMV promoter reporter, transcription factor profiling; actives raise or lower the signal
Active and inactive are the calls of the source. Rule for the calls: active = hit-call score of the fitted dose curve at least 0.9, where 1 is the maximum; inactive = score below 0.9.
The reply should name one outcome from active, inactive

Which outcome did this test record for the compound C=C(C)C(=O)OCCOC(=O)CC(C)=O ? inactive

Kindly provide the recorded test outcome for the following compound: CCCCCCCCCCN inactive

Please share the test call associated with NCCNCCN . inactive

Dear colleague, could you share the recorded outcome for Nc1nc2ccc([N+](=O)[O-])cc2s1 when you have a moment? inactive

Hi, do you know how CC(=O)[C@H]1CC[C@H]2[C@@H]3CC=C4C[C@@H](O)CC[C@]4(C)[C@H]3CC[C@]12C came out in this test? inactive

What did the test return for O=C(O)CN(CCN(CC(=O)O)CC(=O)O)CCN(CC(=O)O)CC(=O)O ? inactive

Each compound tested received a call. Report the one for CC(C)=CCCC(C)CC=O (stereo not drawn) . inactive

Check the results log: what was the call for CCCCC[Si](OCC)(OCC)OCC ? inactive

Per the assay record, what outcome was assigned to Cc1ccc(C=O)cc1 ? inactive

Record lookup: outcome of this test for N#Cc1ccccc1 ? inactive

Name the outcome recorded for O=Cc1ccc(Cl)c([N+](=O)[O-])c1 in the assay. active

Hi, sorry to bother you, what did the test record for CCC(O)CO (stereo not drawn) ? inactive

Query: recorded result category for CCCCCNCCCCC in this test inactive

Field: outcome | Entry: CCCCCC(=O)OCCc1ccccc1 inactive

Record request — test call for CNCCO inactive

Fill in: this test's call for COc1cc(C)cc(O)c1 is ___ inactive

Which outcome was entered for the compound CN(CCOc1ccc(CC2SC(=O)NC2=O)cc1)c1ccccn1 (stereo not drawn) in this test? inactive

Which result was noted for this compound in the test: CC(CCO)CCc1ccccc1 (stereo not drawn) inactive

Entry Clc1cccc(Cl)n1 : call = ? inactive

Call for entry CCCCC(CC)COCCC#N (stereo not drawn) : inactive

Which outcome was entered for the compound O=C(O)c1cccc([N+](=O)[O-])c1 in this test? inactive

Just curious, what result did COCCOCCOCCOCCOCCO get here? inactive

What classification did O=S(=O)(O)c1ccc(O)c2ncccc12 end up with in this test? inactive
